Hello, the source for this data is patent US20040142888A1, in case you need it.

Target: rat RabGGT (Rattus norvegicus, UniProt Q08602+Q08603)
Construct: purchased Calbiochem 345855; host or cells: Sf9/baculovirus
Sequence (Q08602 whole entry): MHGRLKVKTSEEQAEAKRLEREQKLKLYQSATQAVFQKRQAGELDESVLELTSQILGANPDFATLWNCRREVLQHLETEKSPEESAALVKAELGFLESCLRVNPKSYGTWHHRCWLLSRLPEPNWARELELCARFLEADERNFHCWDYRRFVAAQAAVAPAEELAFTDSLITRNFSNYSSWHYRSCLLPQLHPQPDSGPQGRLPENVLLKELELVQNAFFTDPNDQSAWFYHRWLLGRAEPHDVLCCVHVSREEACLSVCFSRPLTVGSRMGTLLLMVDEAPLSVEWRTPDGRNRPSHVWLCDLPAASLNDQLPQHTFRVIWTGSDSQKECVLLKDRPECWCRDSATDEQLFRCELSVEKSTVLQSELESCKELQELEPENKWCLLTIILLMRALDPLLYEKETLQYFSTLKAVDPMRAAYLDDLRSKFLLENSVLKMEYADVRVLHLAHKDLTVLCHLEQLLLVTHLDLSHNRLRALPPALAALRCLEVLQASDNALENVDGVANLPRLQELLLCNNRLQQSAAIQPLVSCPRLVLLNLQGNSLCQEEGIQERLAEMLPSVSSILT
Sequence (Q08603 whole entry): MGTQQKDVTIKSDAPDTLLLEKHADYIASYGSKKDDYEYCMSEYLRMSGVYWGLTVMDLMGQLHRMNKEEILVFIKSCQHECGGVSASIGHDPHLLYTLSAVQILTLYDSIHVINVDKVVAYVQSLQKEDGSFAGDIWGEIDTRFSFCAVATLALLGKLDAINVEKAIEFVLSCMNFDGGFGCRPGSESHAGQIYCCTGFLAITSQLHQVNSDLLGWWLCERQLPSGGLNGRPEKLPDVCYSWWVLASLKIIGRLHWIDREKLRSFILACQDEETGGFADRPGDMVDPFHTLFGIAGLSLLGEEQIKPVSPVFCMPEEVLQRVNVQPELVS
Assay: RabGGT filter binding assay: transfer of (3H)geranylgeranyl from 3H-GGPP to recombinant Rab3A
Assay type: biochemical
Conditions: recombinant rat RabGGT, Rab3A, REP-1, 30 minute at 37° C.
Recorded IC90 by entry
State the answer as a number, implicitly in nM.

As a guide, the following entries are already answered.
[
  {
    "molecule": "Cn1cnc(S(=O)(=O)N(Cc2ccsc2)C2Cc3cc(C#N)ccc3N(Cc3cncn3C)C2)c1 (stereo not shown) [Compound 7Q]",
    "studyTarget": "rat RabGGT (Rattus norvegicus, UniProt Q08602+Q08603)",
    "IC90 [nM]": 2300
  },
  {
    "molecule": "COc1ccc(S(=O)(=O)N2Cc3cc(C#N)ccc3N(Cc3cnc[nH]3)C[C@H]2Cc2ccccc2)cc1 [Compound 7A]",
    "studyTarget": "rat RabGGT (Rattus norvegicus, UniProt Q08602+Q08603)",
    "IC90 [nM]": 295
  },
  {
    "molecule": "N#Cc1ccc2c(c1)CN(S(=O)(=O)N1CCCCC1)[C@H](Cc1ccccc1)CN2Cc1cnc[nH]1 [Compound 7B]",
    "studyTarget": "rat RabGGT (Rattus norvegicus, UniProt Q08602+Q08603)",
    "IC90 [nM]": 199
  },
  {
    "molecule": "C=C(C)CN(C1Cc2cc(C#N)ccc2N(Cc2cncn2C)C1)S(=O)(=O)N1CC=CC1 (stereo not shown) [Compound 7O]",
    "studyTarget": "rat RabGGT (Rattus norvegicus, UniProt Q08602+Q08603)",
    "IC90 [nM]": 1120
  },
  {
    "molecule": "Cn1cc(S(=O)(=O)N(Cc2ccsc2)C2Cc3cc(C#N)ccc3N(Cc3cncn3C)C2)cn1 (stereo not shown) [Compound 7N]",
    "studyTarget": "rat RabGGT (Rattus norvegicus, UniProt Q08602+Q08603)",
    "IC90 [nM]": 309
  }
]

Problem: Entry Cn1cncc1CN1CC(N(CC(=O)OC(C)(C)C)S(=O)(=O)c2ccccn2)Cc2cc(C#N)ccc21 (stereo not shown) [Compound 7R] , system rat RabGGT (Rattus norvegicus, UniProt Q08602+Q08603): what IC90 was measured?
Solution: 10100
